Examples of compounds with documented EC50 follow.
target: Apelin receptor (Mus musculus); test: Agonist activity at mouse APJ receptor assessed as effect on cAMP accumulation by cAMP-Glo assay
Sequence (Q9WV08 whole entry): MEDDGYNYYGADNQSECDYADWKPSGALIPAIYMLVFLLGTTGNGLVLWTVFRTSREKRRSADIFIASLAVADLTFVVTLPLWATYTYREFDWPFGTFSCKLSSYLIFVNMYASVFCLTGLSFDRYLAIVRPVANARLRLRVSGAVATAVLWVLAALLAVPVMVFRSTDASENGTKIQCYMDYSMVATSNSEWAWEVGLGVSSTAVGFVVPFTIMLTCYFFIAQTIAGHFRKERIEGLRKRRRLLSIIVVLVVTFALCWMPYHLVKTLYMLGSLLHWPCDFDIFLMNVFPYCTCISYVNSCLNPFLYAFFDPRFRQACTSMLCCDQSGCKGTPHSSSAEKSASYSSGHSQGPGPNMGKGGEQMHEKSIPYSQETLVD

Recorded results for 3 compounds are shown here.
INSERT INTO measurements (molecular_string, tested_on, data_value) VALUES
  ('CCCCc1nc(=O)c(S(=O)(=O)c2ccc(-c3ccc(F)cc3)cc2)c(O)n1-c1c(OC)cccc1OC', 'Apelin receptor (Mus musculus)', '0.1 nM'),
  ('CCCCc1[nH]c(=O)c(S(=O)(=O)c2ccc(-c3ccc(F)nc3)cc2)c(O)c1-c1c(OC)cccc1OC', 'Apelin receptor (Mus musculus)', '5 nM'),
  ('CCCCc1nc(=O)c(S(=O)(=O)c2ccccc2)c(O)n1-c1c(OC)cccc1OC', 'Apelin receptor (Mus musculus)', '1 nM');

Task: EC50 for `CCOCc1nc(O)c(-c2nnc(Cc3ccc(Cl)cn3)o2)c(O)c1-c1c(OC)cccc1OC` ?
Output: 0.027 nM
